Where these numbers come from: patent US8765705B2

# System: TSP1 mRNA
# protocol-details: TSP1 mRNA level in C4-2 cells, real-time RT-PCR normalized to cyclophilin A
# Assay type: cell-based, human
# test-context: C4-2 cells transfected with siRNA (10 nM), 2 days after transfection
d = 2'-deoxy (DNA); r = 2'-OH (RNA)
measured-metric: TSP1 mRNA level

IN: If you can, please state the reported TSP1 mRNA level value of TRPV2: siRNA targeting TRPV2: UAAGAGUCAACCUCAACUAdTdT / UAGUUGAGGUUGACUCUUAdTdT (chain 1 UAAGAGUCAACCUCAACUATT; chain 2 UAGUUGAGGUUGACUCUUATT; sugars from the 5' end r19 d2, backbone not given here) .
OUT: reduced

IN: If you can, please state the reported TSP1 mRNA level value of TRPV6: siRNA targeting TRPV6: GGAAGACAGGCAAGAUCUCdTdT / GAGAUCUUGCCUGUCUUCCdTdT (chain 1 GGAAGACAGGCAAGAUCUCTT; chain 2 GAGAUCUUGCCUGUCUUCCTT; sugars from the 5' end r19 d2, backbone not given here) .
OUT: reduced

IN: If you can, please state the reported TSP1 mRNA level value of TSP1b-siRNA: Duplex UACCCGAGACGAUUGUAUGdTdT / CAUACAAUCGUCUCGGGUAdTdT targeting specifically the human TSP1 mRNA (sense UACCCGAGACGAUUGUAUGTT; antisense CAUACAAUCGUCUCGGGUATT; sugars from the 5' end r19 d2, backbone not given here) .
OUT: significantly reduces

IN: If you can, please state the reported TSP1 mRNA level value of TSP1a-siRNA: Duplex CCUUGACAACAACGUGGUGdTdT / CACCACGUUGUUGUCAAGGdTdT targeting TSP1 mRNA, sequence conserved between human and mouse (sense CCUUGACAACAACGUGGUGTT; antisense CACCACGUUGUUGUCAAGGTT; sugars from the 5' end r19 d2, backbone not given here) .
OUT: significantly reduces
